MEASUREMENT TARGET: 85/88 kDa calcium-independent phospholipase A2 (Homo sapiens, UniProt O60733)
ASSAY NOTES: Inhibition of human recombinant iPLA2 assessed as reduction in free FA formation after 30 mins by HPLC-MS analysis
pIC50: −log10 of the molar value.
OBSERVED PROPERTY: pIC50

{"columns": ["SMILES REPRESENTATION", "MEASUREMENT TARGET", "OBSERVED PROPERTY", "REPORTED RESULT"],
 "data": [
  ["CCCCCCCCSCC(=O)C(F)(F)F", "85/88 kDa calcium-independent phospholipase A2 (Homo sapiens, UniProt O60733)", "pIC50", 7.32]
]}

* * *

MEASUREMENT TARGET: 85/88 kDa calcium-independent phospholipase A2 (Homo sapiens)
Sequence (O60733 whole entry): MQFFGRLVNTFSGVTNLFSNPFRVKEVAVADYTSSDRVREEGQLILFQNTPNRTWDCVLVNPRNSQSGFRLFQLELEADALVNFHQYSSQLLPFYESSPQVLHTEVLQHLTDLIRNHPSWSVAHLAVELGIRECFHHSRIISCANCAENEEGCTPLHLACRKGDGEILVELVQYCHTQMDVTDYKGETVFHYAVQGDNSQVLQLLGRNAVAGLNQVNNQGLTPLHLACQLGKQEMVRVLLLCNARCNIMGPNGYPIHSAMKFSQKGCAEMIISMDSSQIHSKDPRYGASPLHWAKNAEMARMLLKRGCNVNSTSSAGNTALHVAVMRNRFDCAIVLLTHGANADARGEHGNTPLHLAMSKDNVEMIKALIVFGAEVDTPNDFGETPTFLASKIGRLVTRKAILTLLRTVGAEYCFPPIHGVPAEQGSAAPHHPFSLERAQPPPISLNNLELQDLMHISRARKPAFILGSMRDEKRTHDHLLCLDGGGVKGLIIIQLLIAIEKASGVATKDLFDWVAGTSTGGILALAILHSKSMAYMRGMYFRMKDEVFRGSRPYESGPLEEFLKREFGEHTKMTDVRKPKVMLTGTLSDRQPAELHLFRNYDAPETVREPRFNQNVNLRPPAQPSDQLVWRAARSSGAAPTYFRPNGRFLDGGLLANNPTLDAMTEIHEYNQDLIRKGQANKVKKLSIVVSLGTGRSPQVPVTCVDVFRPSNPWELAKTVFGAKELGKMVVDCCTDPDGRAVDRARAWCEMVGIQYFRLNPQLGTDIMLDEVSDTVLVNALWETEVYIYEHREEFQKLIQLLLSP
ASSAY NOTES: Inhibition of human recombinant calcium-independent PLA2 using PAPA as substrate assessed as reduction in […] after 30 mins by HPLC-MS analysis

{"columns": ["SMILES REPRESENTATION", "MEASUREMENT TARGET", "IC50"],
 "data": [
  ["CCCCCCCCSCC(=O)C(F)(F)F", "85/88 kDa calcium-independent phospholipase A2 (Homo sapiens)", "160 nM"]
]}

* * *

MEASUREMENT TARGET: 85/88 kDa calcium-independent phospholipase A2 (Homo sapiens, UniProt O60733)
ASSAY NOTES: Inhibition of human recombinant calcium-independent PLA2 using PAPE as substrate assessed as assessed as reduction in free AA formation after 30 mins in presence of equal molar mixture of PAPA/PAPC/PAPE/PAPG/PAPS/PLPC by HPLC-MS analysis
pIC50: −log10 of the molar value.

{"columns": ["SMILES REPRESENTATION", "pIC50"],
 "data": [
  ["CCCCCCCCSCC(=O)C(F)(F)F", 7.30]
]}

* * *

MEASUREMENT TARGET: 85/88 kDa calcium-independent phospholipase A2 (Homo sapiens, UniProt O60733)
ASSAY NOTES: Inhibition of human recombinant calcium-independent PLA2 using PLPC as substrate assessed as reduction in 16:0 LPC formation after 30 mins by HPLC-MS analysis

{"columns": ["SMILES REPRESENTATION", "MEASUREMENT TARGET", "UNIT LABEL", "IC50"],
 "data": [
  ["CCCCCCCCSCC(=O)C(F)(F)F", "85/88 kDa calcium-independent phospholipase A2 (Homo sapiens, UniProt O60733)", "nM", 83]
]}

* * *

MEASUREMENT TARGET: 85/88 kDa calcium-independent phospholipase A2 (Homo sapiens, UniProt O60733)
ASSAY NOTES: Inhibition of human recombinant calcium-independent PLA2 using PAPC as substrate assessed as reduction in free AA formation after 30 mins by HPLC-MS analysis

{"columns": ["SMILES REPRESENTATION", "IC50, nM"],
 "data": [
  ["CCCCCCCCSCC(=O)C(F)(F)F", 49]
]}

* * *

MEASUREMENT TARGET: 85/88 kDa calcium-independent phospholipase A2 (Homo sapiens, UniProt O60733)
ASSAY NOTES: Inhibition of human recombinant calcium-independent PLA2 using PAPE as substrate assessed as reduction in […] after 30 mins in presence of equal molar mixture of PAPA/PAPC/PAPE/PAPG/PAPS/PLPC by HPLC-MS analysis
pIC50: −log10 of the molar value.
OBSERVED PROPERTY: pIC50

{"columns": ["SMILES REPRESENTATION", "OBSERVED PROPERTY", "REPORTED RESULT"],
 "data": [
  ["CCCCCCCCSCC(=O)C(F)(F)F", "pIC50", 7.20]
]}

* * *

MEASUREMENT TARGET: 85/88 kDa calcium-independent phospholipase A2 (Homo sapiens, UniProt O60733)
ASSAY NOTES: Inhibition of human recombinant calcium-independent PLA2 using PLPC as substrate assessed as reduction in free LA formation after 30 mins by HPLC-MS analysis
OBSERVED PROPERTY: IC50 (nM)

{"columns": ["SMILES REPRESENTATION", "OBSERVED PROPERTY", "UNIT LABEL", "REPORTED RESULT"],
 "data": [
  ["CCCCCCCCSCC(=O)C(F)(F)F", "IC50", "nM", 67]
]}

* * *

MEASUREMENT TARGET: 85/88 kDa calcium-independent phospholipase A2 (Homo sapiens)
Sequence (O60733 whole entry): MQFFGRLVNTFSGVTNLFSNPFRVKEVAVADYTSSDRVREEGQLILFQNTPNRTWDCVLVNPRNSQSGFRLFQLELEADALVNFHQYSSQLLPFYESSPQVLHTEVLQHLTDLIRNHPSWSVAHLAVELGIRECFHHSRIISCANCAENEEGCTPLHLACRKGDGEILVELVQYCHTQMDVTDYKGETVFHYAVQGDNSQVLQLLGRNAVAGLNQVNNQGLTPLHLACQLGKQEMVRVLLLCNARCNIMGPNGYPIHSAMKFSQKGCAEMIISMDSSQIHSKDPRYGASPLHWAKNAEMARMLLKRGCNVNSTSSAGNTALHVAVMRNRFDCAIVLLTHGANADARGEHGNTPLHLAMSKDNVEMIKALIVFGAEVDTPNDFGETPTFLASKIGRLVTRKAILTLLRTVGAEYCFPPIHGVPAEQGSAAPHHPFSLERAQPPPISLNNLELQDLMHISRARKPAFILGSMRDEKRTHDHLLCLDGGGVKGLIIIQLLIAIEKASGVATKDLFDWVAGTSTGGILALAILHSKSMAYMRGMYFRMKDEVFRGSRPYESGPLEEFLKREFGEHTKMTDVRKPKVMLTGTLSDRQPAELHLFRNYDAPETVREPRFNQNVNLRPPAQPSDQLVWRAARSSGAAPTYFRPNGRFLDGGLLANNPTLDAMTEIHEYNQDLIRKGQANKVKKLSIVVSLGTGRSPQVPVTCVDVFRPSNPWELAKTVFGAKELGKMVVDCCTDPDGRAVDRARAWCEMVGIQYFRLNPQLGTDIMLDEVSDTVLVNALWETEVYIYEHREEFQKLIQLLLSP
ASSAY NOTES: Inhibition of human recombinant calcium-independent PLA2 using PAPG as substrate assessed as reduction in 16:0 […] formation after 30 mins in presence of equal molar mixture of PAPA/PAPC/PAPE/PAPG/PAPS/PLPC by HPLC-MS analysis
OBSERVED PROPERTY: IC50 (nM)

{"columns": ["SMILES REPRESENTATION", "OBSERVED PROPERTY", "REPORTED RESULT"],
 "data": [
  ["CCCCCCCCSCC(=O)C(F)(F)F", "IC50", 48]
]}

* * *

MEASUREMENT TARGET: 85/88 kDa calcium-independent phospholipase A2 (Homo sapiens, UniProt O60733)
ASSAY NOTES: Inhibition of human recombinant calcium-independent PLA2 using PAPC as substrate assessed as reduction in free [14C]-AA formation after 30 mins by scintillation counting
pIC50: −log10 of the molar value.

{"columns": ["SMILES REPRESENTATION", "pIC50"],
 "data": [
  ["CCCCCCCCSCC(=O)C(F)(F)F", 7.32]
]}
